# Tested on: PMA-differentiated THP-1 cells
# measurement_protocol: IL-1β production in PMA-differentiated THP-1 cells stimulated with gramicidin (hTHP-1 assay containing 2% fetal bovine serum; Procedures 1 and 2)
# Format: cell-based, human
# conditions: Homo sapiens, THP-1, Table B2; 2% fetal bovine serum; class symbols; read-out: hTHP-1 IC50
reported_metric: IC50

>>> recorded_measurement("CCn1ccc([S@](N)(=O)=NC(=O)Nc2c3c(nc(C4CC4)c2C2CC2)CCC3)n1 [Compound 726b]")
"0.2 to 1 µM"
>>> recorded_measurement("Cc1c(C(F)(F)F)nc2c(c1NC(=O)N=[S@@](N)(=O)c1cnc(C(C)(C)O)s1)CCC2C (some centres unmarked) [Compound 608d]")
"1 to 5 µM"
>>> recorded_measurement("Cc1c(C(F)(F)F)nc2c(c1NC(=O)N=S(N)(=O)c1ccn(C)n1)CCC2 (centres unmarked) [Compound 730]")
"5 to 30 µM"
>>> recorded_measurement("CC(C)n1cc(CO)c(S(N)(=O)=NC(=O)Nc2c3c(nc4c2CCC4(C)C)CCC3)n1 (single isomer, unassigned) [Compound 682b]")
"1 to 5 µM"
>>> recorded_measurement("CC1CCc2c1nc1c(c2NC(=O)N=S(N)(=O)c2cn(C(C)C)cn2)CCC1 (single isomer, unassigned) [Compound 660d]")
"5 to 30 µM"
>>> recorded_measurement("Cc1cc(S(N)(=O)=NC(=O)Nc2c3c(nc4c2CCC4)CCC3)sc1C(C)(C)O (centres unmarked) [Compound 692]")
"1 to 5 µM"
>>> recorded_measurement("Cc1c(C(F)(F)F)nc2c(c1NC(=O)N=S(N)(=O)c1ccn(C(F)F)n1)CCC2 (centres unmarked) [Compound 621]")
"1 to 5 µM"
>>> recorded_measurement("Cc1c(C2CC2)nc2c(c1NC(=O)N=S(N)(=O)c1nc(C(C)(C)O)cs1)CCC2 (centres unmarked) [Compound 626]")
"0.04 to 0.2 µM"
>>> recorded_measurement("Cc1c(C(F)(F)F)nc2c(c1NC(=O)N=S(N)(=O)c1ccn(C(C)C)n1)CCC2 (centres unmarked) [Compound 628]")
"0.2 to 1 µM"
>>> recorded_measurement("Cc1c(C(F)(F)F)nc2c(c1NC(=O)N=S(N)(=O)c1cnn(C(F)F)c1)CCC2 (centres unmarked) [Compound 617]")
"5 to 30 µM"
>>> recorded_measurement("COC(C)(C)c1nc(CO)c(S(N)(=O)=NC(=O)Nc2c3c(nc4c2CCC4(C)C)CCC3)s1 (single isomer, unassigned) [Compound 648a]")
"0.2 to 1 µM"
>>> recorded_measurement("CC(C)(O)c1cc(Br)c(S(N)(=O)=NC(=O)Nc2c3c(nc4c2CCC4)CCC3)s1 (single isomer, unassigned) [Compound 690b]")
"1 to 5 µM"
>>> recorded_measurement("CC(C)(O)c1cc(F)c([S@](N)(=O)=NC(=O)Nc2c3c(nc(C4CC4)c2C2CC2)CCC3)s1 [Compound 727b]")
"0.04 to 0.2 µM"
>>> recorded_measurement("COCc1nc(C(C)(C)O)sc1S(N)(=O)=NC(=O)Nc1c2c(nc3c1CCC3)CCC2 (single isomer, unassigned) [Compound 689b]")
"5 to 30 µM"
